Test system: dd strain male mice
Experimental Protocol: Acute toxicity, oral administration, deaths counted over one week
Type: in vivo
Assay Context: Dose: 1500mg/kg, observed for a week
Consider the following compounds and their measured Acute Toxicity Nos. of Deaths/ Nos. of Tests readings.

> print(dat)
                                  compound  test.value
1          COc1ccc(C(=O)Nc2c(C)cccc2C)cc1N         0/6
2    COc1ccc(C(=O)Nc2cccc(C(F)(F)F)c2)cc1N         0/6
3  COc1ccc(C(=O)Nc2cc(C(F)(F)F)ccc2Cl)cc1N         0/6

*Q* Item COc1ccc(C(=O)Nc2cc(C(F)(F)F)cc(C(F)(F)F)c2)cc1N has what recorded Acute Toxicity Nos. of Deaths/ Nos. of Tests?
*A* 0/6

*Q* And COc1ccc(C(=O)Nc2ccc(Cl)cc2Cl)cc1N ?
*A* 0/6

*Q* Check COc1ccc(C(=O)Nc2ccccc2)cc1N [Compound 6, 3-Amino-4-methoxy-benzanilide] too.
*A* 0/5

*Q* Input COc1cc(C)nc(-n2nc(C)cc2OC)n1 [Mepirizole, reference compound]
*A* 2/2

*Q* Now the same for COc1ccc(C(=O)Nc2cccc(F)c2)cc1N [Compound 1, 3-Amino-3'-fluoro-4-methoxy-benzanilide]
*A* 0/6

*Q* Same read-out for COc1ccc(C(=O)Nc2ccc(Cl)cc2C(F)(F)F)cc1N ?
*A* 0/6

// provenance: patent EP0058009A1
